# Tested on: Lgr5 (MarsCy1-Lgr5-EGFP, U2OS)
# protocol notes: cell-surface Lgr5 expression (SCi1 fluorescence, background-subtracted) relative to WT DMSO (fold of DMSO control); higher = more Lgr5 at the plasma membrane, active = hit call of the paper
# condition notes: U2OS MarsCy1-Lgr5-EGFP stable; treatment time: overnight; 16 µM; library: Johns Hopkins Clinical Compound Library
Screen size: about 1,200 compounds; about 50 (4%) showed activity. Cut-off read from the data, not from the text of the source: all actives reach 1.3 or more but so do some inactives. Only a selection was taken, and actives are over-represented in it overall.
The reply should name one outcome from active, inactive

Previously resolved entries follow.
COc1cc(C2c3cc4c(cc3C(O)C(CO)C2C(=O)O)OCO4)cc(OC)c1OC.COc1cc(C2c3cc4c(cc3C(O)C(CO)C2C(=O)O)OCO4)cc(OC)c1OC.COc1cc(C2c3cc4c(cc3C(O)C3COC(=O)C23)OCO4)cc(OC)c1OC.COc1cc(C2c3cc4c(cc3C(O)C3COC(=O)C23)OCO4)cc(OC)c1OC (configuration not stated) [Podophyllum resin] = active
N[C@@H](Cc1ccc(N(CCCl)CCCl)cc1)C(=O)O [Melphalan] = inactive
CN(C)C(=O)Oc1cc(OC(=O)N(C)C)cc(C(O)CNC(C)(C)C)c1 (configuration not stated) [Bambuterol] = inactive
C=CCN=C=S [Allyl isothiocyanate] = inactive
CC(C)(C)NCC(O)c1ccccc1Cl (configuration not stated) [Tulobuterol] = active
C[C@]12Cc3c[nH]nc3C[C@@H]1CC[C@@H]1[C@@H]2CC[C@@]2(C)[C@H]1CC[C@]2(C)O [Stanozolol] = inactive

We next turn to a different compound, shown below.
I would be grateful if you could indicate the recorded call for C=CCN1C[C@H](C(=O)N(CCCN(C)C)C(=O)NCC)C[C@@H]2c3cccc4[nH]cc(c34)C[C@H]21 [Cabergoline] .
inactive

Where do the numbers come from? From the supplement of paper PMC4683952.
